The reported numbers originate from patent US8193191B2.

Target: UniProt:Q9UKP6
Sequence (Q9UKP6 1-389): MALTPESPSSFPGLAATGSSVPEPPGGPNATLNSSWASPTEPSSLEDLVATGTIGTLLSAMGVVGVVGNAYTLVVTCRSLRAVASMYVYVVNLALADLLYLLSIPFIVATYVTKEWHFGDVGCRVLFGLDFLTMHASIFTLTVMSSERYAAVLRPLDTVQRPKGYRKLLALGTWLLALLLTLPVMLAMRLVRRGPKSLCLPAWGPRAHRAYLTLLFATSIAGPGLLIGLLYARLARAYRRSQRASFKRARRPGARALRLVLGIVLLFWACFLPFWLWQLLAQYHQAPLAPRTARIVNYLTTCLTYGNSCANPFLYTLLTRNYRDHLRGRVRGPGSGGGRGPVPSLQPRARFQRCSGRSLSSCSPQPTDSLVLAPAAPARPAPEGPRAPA
Test: Human Radioligand Binding Assay ((^125I)-U-II binding to human skeletal muscle myoblasts)
Entries and their Ki
Measure: Ki (nM)

Molecule | Measure | Reading
COc1ccc(C(CCCNS(=O)(=O)c2cnoc2C)N2C(=O)c3cccc(N4CCN([C@H](C)c5ccccc5)CC4)c3C2=O)cc1OC (stereo partly drawn) | Ki | 31
COc1ccc([C@@H](CCCNC(=O)C(C)C)N2C(=O)c3cccc(N4CCN([C@H](C)c5ccccc5)CC4)c3C2=O)cc1OC | Ki | 19
CCN1CCN(c2cccc3c2C(=O)N([C@H](CCCOS(=O)(=O)N(C)C)c2ccc(OC)c(OC)c2)C3=O)CC1 | Ki | 290
COc1ccc([C@@H](CCCNS(=O)(=O)c2cnn(C)c2C)N2C(=O)c3cccc(N4CCN([C@H](C)c5ccccc5)CC4)c3C2=O)cc1OC | Ki | 72
COc1ccc([C@@H](CCCNC2=CCCN2)N2C(=O)c3cccc(N4CCN([C@H](C)c5ccccc5)CC4)c3C2=O)cc1OC | Ki | 350
COc1ccc([C@@H](CCCNC(=O)c2ccccn2)N2C(=O)c3cccc(N4CCN([C@H](C)c5ccccc5)CC4)c3C2=O)cc1OC | Ki | 74

* * *

biological target: rat GPR14 (U-II receptor) (Rattus norvegicus, UniProt P49684); construct: expressed in transfected cells; assay: Rat UII Calcium Mobilization FLIPR Assay; format: cell-based; conditions: CHO, 5 min, 10 μM compound; agonist-induced Ca2+ mobilization (FLIPR), CHO cells with rat UII receptor; read-out: % I @ 10
Sequence (P49684 whole entry): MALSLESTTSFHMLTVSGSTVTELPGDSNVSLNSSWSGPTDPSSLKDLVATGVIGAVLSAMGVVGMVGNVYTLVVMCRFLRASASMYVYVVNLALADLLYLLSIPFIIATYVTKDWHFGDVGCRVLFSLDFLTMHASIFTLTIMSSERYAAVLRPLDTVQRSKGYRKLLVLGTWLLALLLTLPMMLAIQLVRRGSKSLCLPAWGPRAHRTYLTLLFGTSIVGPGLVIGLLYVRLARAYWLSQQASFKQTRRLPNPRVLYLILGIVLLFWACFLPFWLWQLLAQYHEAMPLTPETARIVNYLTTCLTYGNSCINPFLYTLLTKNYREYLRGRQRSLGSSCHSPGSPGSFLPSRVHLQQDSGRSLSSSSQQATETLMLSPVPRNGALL
Please note: Satisfied applies when inhibition at 10 µM is 80% or greater, and Not satisfied applies otherwise.

Compound | Answer Label
COc1ccc(CN2C(=O)c3cccc(N4CCN(Cc5ccccc5C)CC4)c3C2=O)cc1OC [Cpd 33] | Not satisfied
COc1ccc(CN2C(=O)c3cccc(NCCNCc4ccccc4)c3C2=O)cc1OC [Cpd 48] | Not satisfied
COc1ccc(CN2C(=O)c3cccc(N4CCN(C(C)c5ccccc5)CC4)c3C2=O)cc1OC (centres unmarked) [Cpd 6] | Satisfied
COc1ccc(CN2C(=O)c3c(Cl)ccc(N4CCN([C@H](C)c5ccccc5)CC4)c3C2=O)cc1OC [Cpd 10] | Satisfied
COc1ccc(CN2C(=O)c3cccc(N4CCN(Cc5cc(F)ccc5F)CC4)c3C2=O)cc1OC [Cpd 29] | Not satisfied
COc1ccc(C(CCCN)N2C(=O)c3cccc(N4CCN([C@H](C)c5ccccc5)CC4)c3C2=O)cc1OC (some centres unmarked) [Cpd 66] | Satisfied
COc1ccc(CN2C(=O)c3cccc(N4CCN(Cc5ccccc5C#N)CC4)c3C2=O)cc1OC [Cpd 38] | Not satisfied

* * *

Target: endogenous human UII receptor (Homo sapiens, UniProt Q9UKP6)
Sequence (Q9UKP6 1-389): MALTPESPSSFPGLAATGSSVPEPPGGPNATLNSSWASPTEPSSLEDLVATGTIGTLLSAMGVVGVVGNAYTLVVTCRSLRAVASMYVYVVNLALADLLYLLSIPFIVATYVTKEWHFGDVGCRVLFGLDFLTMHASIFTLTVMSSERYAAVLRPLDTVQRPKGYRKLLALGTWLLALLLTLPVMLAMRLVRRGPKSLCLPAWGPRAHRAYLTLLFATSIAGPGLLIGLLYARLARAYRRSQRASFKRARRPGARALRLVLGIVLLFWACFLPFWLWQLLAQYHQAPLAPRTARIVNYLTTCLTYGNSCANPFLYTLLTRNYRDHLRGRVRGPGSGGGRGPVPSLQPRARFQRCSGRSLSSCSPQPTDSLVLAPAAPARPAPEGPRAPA
Assay: Human Radioligand Binding Assay ((^125I)-U-II binding to human skeletal muscle myoblasts)
Item-by-item account of Ki

Compound | Unit Name | Comparator | Ki
COc1ccc([C@@H](CCCNc2ncccn2)N2C(=O)c3cccc(N4CCN([C@H](C)c5ccccc5)CC4)c3C2=O)cc1OC | nM | = | 120
COc1ccc([C@@H](CCCNC(=O)C2CCC2)N2C(=O)c3cccc(N4CCN([C@H](C)c5ccccc5)CC4)c3C2=O)cc1OC | nM | = | 22
COc1ccc([C@@H](CCCN(C)S(=O)(=O)O)N2C(=O)c3cccc(N4CCN([C@H](C)c5ccccc5)CC4)c3C2=O)cc1OC | nM | = | 25
COc1ccc(CN2C(=O)c3c(Cl)ccc(N4CC5CCC(C4)N5Cc4ccccc4)c3C2=O)cc1OC | nM | = | 660
CCN1CCN(c2cccc3c2C(=O)N([C@H](CCCOCc2cccs2)c2ccc(OC)c(OC)c2)C3=O)CC1 | nM | > | 300
COC(=O)c1ccc(S(=O)(=O)NCCCC(c2ccc(OC)c(OC)c2)N2C(=O)c3cccc(N4CCN([C@H](C)c5ccccc5)CC4)c3C2=O)o1 (stereo partly shown) | nM | = | 320
CCN1CCN(c2cccc3c2C(=O)N(C(CC2CCN(S(=O)(=O)O)CC2)c2ccc(OC)c(OC)c2)C3=O)CC1 (stereo not shown) | nM | = | 57

* * *

molecular target: endogenous human UII receptor (Homo sapiens); assay: Human Radioligand Binding Assay ((^125I)-U-II binding to human skeletal muscle myoblasts); conditions: Inhibition of human UII binding to human skeletal muscle myoblasts containing endogenous human UII receptor
Here, each record is paired with measured log10 of Ki data.
Measure: log10 of Ki (log10 of the value in nM)

Compound | Reading
COc1ccc(C(CCCNC(=O)OC(C)(C)C)N2C(=O)c3cccc(N4CCN([C@H](C)c5ccccc5)CC4)c3C2=O)cc1OC (some centres unmarked) | 2.30
COc1ccc(C(CCCN)N2C(=O)c3cccc(N4CCN([C@H](C)c5ccccc5)CC4)c3C2=O)cc1OC (some centres unmarked) | 3.51
COc1ccc([C@@H](C)N2C(=O)c3cccc(N4CCN([C@H](C)c5ccccc5)CC4)c3C2=O)cc1OC | 2.36
COc1ccc(C(C)N2C(=O)c3cccc(N4CCN([C@H](C)c5ccccc5)CC4)c3C2=O)cc1OC (some centres unmarked) | 2.49
COc1ccc(C(CCCNS(=O)(=O)c2cccs2)N2C(=O)c3cccc(N4CCN([C@H](C)c5ccccc5)CC4)c3C2=O)cc1OC (some centres unmarked) | 1.88
COc1ccc(CN2C(=O)c3cccc(N4CCN([C@H](C)c5ccccc5)CC4)c3C2=O)cc1OC | 2.76
CCC(c1ccc(OC)c(OC)c1)N1C(=O)c2cccc(N3CCN([C@H](C)c4ccccc4)CC3)c2C1=O (some centres unmarked) | 2.49
COc1ccc([C@H](C)N2C(=O)c3cccc(N4CCN([C@H](C)c5ccccc5)CC4)c3C2=O)cc1OC | 2.20

* * *

biological target: rat GPR14 (U-II receptor) (Rattus norvegicus, UniProt P49684); construct: expressed in transfected cells; experiment: Rat UII Calcium Mobilization FLIPR Assay; type: cell-based; settings: Inhibition of Acetyl-cyclic[Cys-Phe-Trp-Lys-(2-Nal)-Cys]-NH2 induced Ca2+ mobilization (FLIPR) in CHO cells transfected with rat UII receptor; read-out: IC50
Below, each of the compounds is paired with its reported IC50 value.

Compound | IC50 (µM)
COc1ccc(CN2C(=O)c3c(Cl)ccc(N4CCN([C@H](C)c5ccccc5)CC4)c3C2=O)cc1OC [Cpd 10] | 0.21
CCC(c1ccc(OC)c(OC)c1)N1C(=O)c2cccc(N3CCN([C@H](C)c4ccccc4)CC3)c2C1=O (stereo partly shown) [Cpd 8] | 0.18
COc1cc(CN2C(=O)c3cccc(N4CCN(C(C)C)CC4)c3C2=O)cc(OC)c1OC [Cpd 52] | 18
COc1cc(CN2C(=O)c3cccc(N4CCN(CC(C)C)CC4)c3C2=O)cc(OC)c1OC [Cpd 60] | 42

* * *

target: rat GPR14 (U-II receptor) (Rattus norvegicus, UniProt P49684); construct: expressed in transfected cells; test: Rat UII Calcium Mobilization FLIPR Assay; assay type: cell-based; details: average value for the compound tested; read-out: Rat UII FLIPR Average IC50
Note to self: IC50 under 50 nM means met, ties and anything higher get not met.

Compound | Target Under Test | Answer Label
COc1ccc([C@@H](CCCNC(=N)N)N2C(=O)c3cccc(N4CCN([C@H](C)c5ccccc5)CC4)c3C2=O)cc1OC | rat GPR14 (U-II receptor) (Rattus norvegicus, UniProt P49684) | met
COc1ccc([C@@H](CCCNC(=O)c2ccc(S(N)(=O)=O)n2C)N2C(=O)c3cccc(N4CCN([C@H](C)c5ccccc5)CC4)c3C2=O)cc1OC | rat GPR14 (U-II receptor) (Rattus norvegicus, UniProt P49684) | met
COc1ccc([C@@H](CCCNS(=O)(=O)c2cn(C)c(C)n2)N2C(=O)c3cccc(N4CCN([C@H](C)c5ccccc5)CC4)c3C2=O)cc1OC | rat GPR14 (U-II receptor) (Rattus norvegicus, UniProt P49684) | met
COc1ccc([C@@H](CCCNS(=O)(=O)C2CCS(=O)(=O)C2)N2C(=O)c3cccc(N4CCN([C@H](C)c5ccccc5)CC4)c3C2=O)cc1OC (some centres unmarked) | rat GPR14 (U-II receptor) (Rattus norvegicus, UniProt P49684) | met
CCN1CCN(c2cccc3c2C(=O)N([C@H](CCCNS(=O)(=O)c2cccs2)c2ccc(OC)c(OC)c2)C3=O)CC1 | rat GPR14 (U-II receptor) (Rattus norvegicus, UniProt P49684) | met
COc1ccc([C@@H](CCCNC(=O)C(C)C)N2C(=O)c3cccc(OC4CCN(C)CC4)c3C2=O)cc1OC | rat GPR14 (U-II receptor) (Rattus norvegicus, UniProt P49684) | not met
COc1ccc([C@@H](CCCNS(=O)(=O)c2sc(C)nc2C)N2C(=O)c3cccc(N4CCN([C@H](C)c5ccccc5)CC4)c3C2=O)cc1OC | rat GPR14 (U-II receptor) (Rattus norvegicus, UniProt P49684) | met
COc1ccc([C@@H](CCCNS(=O)(=O)c2cccs2)N2C(=O)c3cccc(N4CCN(C(C)C)CC4)c3C2=O)cc1OC | rat GPR14 (U-II receptor) (Rattus norvegicus, UniProt P49684) | met
COc1ccc(CN2C(=O)c3cccc(N4CCN(Cc5ccsc5)CC4)c3C2=O)cc1OC | rat GPR14 (U-II receptor) (Rattus norvegicus, UniProt P49684) | not met
COc1ccc([C@@H](CCCNC(=O)c2c(C)noc2C)N2C(=O)c3cccc(N4CCN([C@H](C)c5ccccc5)CC4)c3C2=O)cc1OC | rat GPR14 (U-II receptor) (Rattus norvegicus, UniProt P49684) | met
CCN1CCN(c2cccc3c2C(=O)N(C(c2cccc(NCc4ccccc4)c2)c2ccc(OC)c(OC)c2)C3=O)CC1 (centres unmarked) | rat GPR14 (U-II receptor) (Rattus norvegicus, UniProt P49684) | not met
COc1ccc([C@@H](CCCNC(=O)c2ccno2)N2C(=O)c3cccc(N4CCN([C@H](C)c5ccccc5)CC4)c3C2=O)cc1OC | rat GPR14 (U-II receptor) (Rattus norvegicus, UniProt P49684) | met
COc1ccc([C@@H](CCCNC(=O)C(C)(C)C)N2C(=O)c3cccc(N4CCN([C@H](C)c5ccccc5)CC4)c3C2=O)cc1OC | rat GPR14 (U-II receptor) (Rattus norvegicus, UniProt P49684) | met
COc1ccc(C(CCCNS(=O)(=O)c2c(C)nn(C)c2C)N2C(=O)c3cccc(N4CCN([C@H](C)c5ccccc5)CC4)c3C2=O)cc1OC (some centres unmarked) | rat GPR14 (U-II receptor) (Rattus norvegicus, UniProt P49684) | met
COc1ccc([C@@H](CCCNC2=CCCN2)N2C(=O)c3cccc(N4CCN([C@H](C)c5ccccc5)CC4)c3C2=O)cc1OC | rat GPR14 (U-II receptor) (Rattus norvegicus, UniProt P49684) | met
COc1ccc(C(CCCNS(N)(=O)=O)N2C(=O)c3cccc(N4CCN([C@H](C)c5ccccc5)CC4)c3C2=O)cc1OC (some centres unmarked) | rat GPR14 (U-II receptor) (Rattus norvegicus, UniProt P49684) | met
COc1ccc([C@@H](CCCNC(=O)c2ccccn2)N2C(=O)c3cccc(N4CCN([C@H](C)c5ccccc5)CC4)c3C2=O)cc1OC | rat GPR14 (U-II receptor) (Rattus norvegicus, UniProt P49684) | met
COc1ccc(C(CCCNS(=O)(=O)c2ccccc2)N2C(=O)c3cccc(N4CCN([C@H](C)c5ccccc5)CC4)c3C2=O)cc1OC (some centres unmarked) | rat GPR14 (U-II receptor) (Rattus norvegicus, UniProt P49684) | not met
COc1ccc([C@@H](CCCNC(=O)c2cn[nH]c2)N2C(=O)c3cccc(N4CCN([C@H](C)c5ccccc5)CC4)c3C2=O)cc1OC | rat GPR14 (U-II receptor) (Rattus norvegicus, UniProt P49684) | met
CCN1CCN(c2cccc3c2C(=O)N([C@H](CCCOCC(=O)O)c2ccc(OC)c(OC)c2)C3=O)CC1 | rat GPR14 (U-II receptor) (Rattus norvegicus, UniProt P49684) | not met
COc1ccc([C@@H](CCNS(=O)(=O)O)N2C(=O)c3cccc(N4CCN([C@H](C)c5ccccc5)CC4)c3C2=O)cc1OC | rat GPR14 (U-II receptor) (Rattus norvegicus, UniProt P49684) | met
COc1ccc([C@@H](CCCNS(=O)(=O)c2sc(NC(C)=O)nc2C)N2C(=O)c3cccc(N4CCN([C@H](C)c5ccccc5)CC4)c3C2=O)cc1OC | rat GPR14 (U-II receptor) (Rattus norvegicus, UniProt P49684) | not met
CCN1CCN(c2cccc3c2C(=O)N(C(CC2CCN(Cc4ccccc4)CC2)c2ccc(OC)c(OC)c2)C3=O)CC1 (centres unmarked) | rat GPR14 (U-II receptor) (Rattus norvegicus, UniProt P49684) | not met
COc1ccc(CN2C(=O)c3cccc(N4CCN(C5C6CC7CC(C6)CC5C7)CC4)c3C2=O)cc1OC (centres unmarked) | rat GPR14 (U-II receptor) (Rattus norvegicus, UniProt P49684) | not met
